Below, each entry is listed alongside its reported log10 of IC50.
System: VIM-1 (Pseudomonas aeruginosa (strain ATCC 15692 / DSM 22644 / CIP 104116 / JCM 14847 / LMG 12228 / 1C / PRS 101 / PAO1), UniProt A0A0F7KYQ8)
Protocol summary: biochemical
Condition set: CCF2-FA fluorescence assay, 2 hours at 25° C.; read-out: VIM1 IC50
Value type: log10 of IC50 (log10 of the value in nM)

compound="NCCNS(=O)(=O)C1CCN(c2ccc(S(=O)(=O)NC[C@H](O)CN)c(S(N)(=O)=O)c2-c2nn[nH]n2)CC1 [Example 190]" result=-1.05
compound=NCCC1CCN(c2ccc(S(=O)(=O)N[C@@H](CN)CO)c(S(N)(=O)=O)c2-c2nn[nH]n2)CC1 result=-1.52
compound="NCC1C2CCC1CN(c1ccc(S(=O)(=O)NC[C@H](O)CN)c(S(N)(=O)=O)c1-c1nn[nH]n1)C2 (stereo partly shown)" result=-0.18
compound="NC[C@@H](O)CNS(=O)(=O)c1ccc(N2CCC(C3COC(=O)N3)CC2)c(-c2nn[nH]n2)c1S(N)(=O)=O (stereo partly shown)" result=-0.82
compound=NS(=O)(=O)c1c(S(=O)(=O)N[C@@H]2CCNC2)ccc(N2CCCNC2=O)c1-c1nn[nH]n1 result=-0.70
compound="NC[C@@H](O)CNS(=O)(=O)c1ccc(N2CCC3CNCC3C2)c(-c2nnn[nH]2)c1S(N)(=O)=O (stereo partly shown)" result=-0.37
compound=NS(=O)(=O)c1c(S(=O)(=O)C2CNC2)ccc(N2CC[C@H](CO)[C@H](F)C2)c1-c1nnn[nH]1 result=-0.36

---

Tested on: Serratia marcescens expressing IMP-1 (CL5741)
Assay type: cell-based
Condition set: with imipenem 1 μg/ml; 95% inhibition of bacterial growth
Cut-off 0.8 µM on CL5741 S. marcescens MITC95 IMP, inclusive. At or above means true; below means false.

compound="CC1(C)CN(c2ccc(S(=O)(=O)NC[C@H](O)CN)c(S(N)(=O)=O)c2-c2nn[nH]n2)CCN1CCO [Example 173]" system="Serratia marcescens expressing IMP-1 (CL5741)" assigned_label=true
compound="NC[C@@H](O)CNS(=O)(=O)c1ccc(N2CCC(C(N)CO)CC2)c(-c2nn[nH]n2)c1S(N)(=O)=O (single isomer, unassigned) [Example 181]" system="Serratia marcescens expressing IMP-1 (CL5741)" assigned_label=false
compound="NC[C@@H](O)CNS(=O)(=O)c1ccc(N2CCC3CNCC3C2)c(-c2nnn[nH]2)c1S(N)(=O)=O (stereo partly drawn) [Example 141]" system="Serratia marcescens expressing IMP-1 (CL5741)" assigned_label=true
compound="NC[C@@H](O)CNS(=O)(=O)c1ccc(N2CCN(C(CO)CO)CC2)c(-c2nn[nH]n2)c1S(N)(=O)=O [Example 160]" system="Serratia marcescens expressing IMP-1 (CL5741)" assigned_label=false
compound="C[N+](C)(C)CCCCNc1ccc(S(=O)(=O)N[C@@H]2CCNC2)c(S(N)(=O)=O)c1-c1nnn[nH]1 [Example 72]" system="Serratia marcescens expressing IMP-1 (CL5741)" assigned_label=true
compound="COC1(CN(C)C)CN(c2ccc(S(=O)(=O)N[C@@H]3CCNC3)c(S(N)(=O)=O)c2-c2nnn[nH]2)C1 [Example 116]" system="Serratia marcescens expressing IMP-1 (CL5741)" assigned_label=true
compound="NC[C@@H](O)CNS(=O)(=O)c1ccc(N2CCC(N)CC2)c(-c2nn[nH]n2)c1S(N)(=O)=O [Example 194]" system="Serratia marcescens expressing IMP-1 (CL5741)" assigned_label=false
compound="NC[C@@H](O)CNS(=O)(=O)c1ccc(N2CCN(CCCO)CC2)c(-c2nnn[nH]2)c1S(N)(=O)=O [Example 40]" system="Serratia marcescens expressing IMP-1 (CL5741)" assigned_label=false
compound="NC(=O)[C@H]1CN(c2ccc(S(=O)(=O)N[C@@H]3CCNC3)c(S(N)(=O)=O)c2-c2nn[nH]n2)CCN1 [Example 197]" system="Serratia marcescens expressing IMP-1 (CL5741)" assigned_label=false
compound="CN(C)[C@H]1CCN(c2ccc(S(=O)(=O)N[C@@H]3CCNC3)c(S(N)(=O)=O)c2-c2nnn[nH]2)C1 [Example 67]" system="Serratia marcescens expressing IMP-1 (CL5741)" assigned_label=true
compound="NOC1CCCN(c2ccc(S(=O)(=O)N[C@@H]3CCNC3)c(S(N)(=O)=O)c2-c2nn[nH]n2)C1=O (stereo partly drawn) [Example 150]" system="Serratia marcescens expressing IMP-1 (CL5741)" assigned_label=true
compound="NS(=O)(=O)c1c(S(=O)(=O)N[C@@H]2CCNC2)ccc(N2CCC(CF)CC2)c1-c1nnn[nH]1 [Example 89]" system="Serratia marcescens expressing IMP-1 (CL5741)" assigned_label=true
compound="CC1(O)CCCN(c2ccc(S(=O)(=O)C3CNC3)c(S(N)(=O)=O)c2-c2nnn[nH]2)C1 (stereo not drawn) [Example 59]" system="Serratia marcescens expressing IMP-1 (CL5741)" assigned_label=true
compound="NC1CCCN(c2ccc(S(=O)(=O)C3CNC3)c(S(N)(=O)=O)c2-c2nnn[nH]2)CC1 (stereo not drawn) [Example 32]" system="Serratia marcescens expressing IMP-1 (CL5741)" assigned_label=true
compound="CC1CN(c2ccc(S(=O)(=O)NC[C@H](O)CN)c(S(N)(=O)=O)c2-c2nn[nH]n2)CCN1CCO.O=C(O)C(F)(F)F.O=C(O)C(F)(F)F (stereo partly drawn) [Example 176]" system="Serratia marcescens expressing IMP-1 (CL5741)" assigned_label=false
compound="NC(=O)[C@@H]1CN(c2ccc(S(=O)(=O)N[C@@H]3CCNC3)c(S(N)(=O)=O)c2-c2nn[nH]n2)CCN1 [Example 196]" system="Serratia marcescens expressing IMP-1 (CL5741)" assigned_label=false
compound="NS(=O)(=O)c1c(S(=O)(=O)C2CNC2)ccc(N2C[C@H](O)C[C@@H](O)C2)c1-c1nnn[nH]1 [Example 55]" system="Serratia marcescens expressing IMP-1 (CL5741)" assigned_label=true
compound="NS(=O)(=O)c1c(S(=O)(=O)C2CNC2)ccc(N2CCC[C@H](O)C2)c1-c1nnn[nH]1 [Example 60]" system="Serratia marcescens expressing IMP-1 (CL5741)" assigned_label=true
compound="NS(=O)(=O)c1c(S(=O)(=O)N[C@@H]2CCNC2)ccc(N2CC[C@H](CO)C2)c1-c1nnn[nH]1 [Example 96]" system="Serratia marcescens expressing IMP-1 (CL5741)" assigned_label=true
compound="C[C@H](CN)NS(=O)(=O)c1ccc(N2CCC(CN)CC2)c(-c2nnn[nH]2)c1S(N)(=O)=O [Example 36]" system="Serratia marcescens expressing IMP-1 (CL5741)" assigned_label=true
